Tested on: Hepatitis C virus
Experiment: Antiviral activity against Hepatitis C virus genotype 1b infected in human HuH7 cells assessed as inhibition of viral replication after 2 days by luciferase reporter gene assay
Assay type: functional, organism-based, Hepacivirus hominis
Conditions: Huh-7, 48 h
EC50 strictly under 600 nM means T; at 600 nM or over means F.

INSERT INTO results (compound_structure, label_value) VALUES
  ('CCn1c(-c2ccc(NS(=O)(=O)CC)cc2)c(C#N)c2ccc(OC(F)(F)F)cc21', 'T'),
  ('CCCn1c(-c2ccc(NS(=O)(=O)C3CC3)cc2)c(C#N)c2ccc(OC(F)F)cc21', 'T'),
  ('CCOC(=O)Nc1ccc(-c2c(C#N)c3ccc(OC)cc3n2CC)cc1', 'F'),
  ('CCn1c(-c2ccc(NS(=O)(=O)CC)cc2)c(C#N)c2ccc(CO)cc21', 'F'),
  ('CCn1c(-c2ccc(OC)cc2)c([N+](=O)[O-])c2ccc(OC)cc21', 'F');

Please determine if `CCn1c(-c2ccc(NS(=O)(=O)CC)cc2)c(C#N)c2ccc(C(F)(F)F)cc21` is below 600 nM in terms of EC50.
T

EC50 strictly < 600 nM for this compound? `CCn1c(-c2ccc(NS(=O)(=O)CC)cc2)c(C#N)c2cc(OC)c(OC)cc21`
F

Bench note: check whether `CCn1c(-c2ccc(NS(=O)(=O)CC)cc2)c(C#N)c2ccc(OC)cc21` shows EC50 below 600 nM
T

EC50 under 600 nM? Item: `CCn1c(-c2ccc(NS(=O)(=O)CC)cc2)c(C#N)c2ccc(CN3CCOCC3)cc21`
F

Would you kindly verify if EC50 of `CCn1c(-c2ccc(NS(=O)(=O)CC)cc2)c(C#N)c2c(Cl)cccc21` is strictly less than 600 nM?
F

Hi there! Is EC50 for `CCn1c(-c2ccc(NS(=O)(=O)C3CC3)cc2)c(C#N)c2ccc(OC(F)F)cc21` below 600 nM, do you know?
T

====

Assay: Cmax in Sprague-Dawley rat at 3 mg/kg, po
Assay type: ADME, organism-based
Set-up: dose 3 mg/kg, route oral
Details: in vivo
measured_property: Cmax (ng/mL)
Numeric answer only, unit ng/mL assumed.

Check the records and state Cmax for `N#Cc1c(-c2ccc(NS(=O)(=O)C3CC3)cc2)n(CC2CC2)c2cc(OC(F)F)ccc12`
770

====

In this section we review reported CC50 at 48 h values for a set of compounds.
Assay: Cytotoxicity against human HuH7 cells after 2 days by MTS assay
Type: cell-based, Huh-7
Record the value in µM, omitting the unit from your answer.

Example cases with answers are listed next.
INSERT INTO results (compound, unit_text, meas_value) VALUES
  ('CCn1c(-c2ccc([S+](C)[O-])cc2)c(C#N)c2ccc(OC)cc21 (stereo not given)', 'µM', 52),
  ('CCn1c(-c2ccc(NS(=O)(=O)CC)cc2)c(C#N)c2cc(F)ccc21', 'µM', 39),
  ('CCn1c(-c2ccc(NS(=O)(=O)C3CC3)cc2)c(C#N)c2ccc(OC(F)F)cc21', 'µM', 23),
  ('CCn1c(-c2ccc(NS(=O)(=O)CC)cc2)c(C#N)c2ccc(OC(F)(F)F)cc21', 'µM', 24);

# input for lookup
Please report the measured CC50 at 48 h for `CCOc1ccc2c(C#N)c(-c3ccc(NS(=O)(=O)CC)cc3)n(CC)c2c1`
42

====

Assay: Volume of distribution at steady state in Sprague-Dawley rat at 1 mg/kg, iv
Format: ADME, organism-based
Design: dose 1 mg/kg, route intravenous
Conditions: in vivo, read-out: Vdss
measured_property: Vd
Number first, unit second: that is the form wanted.

Kindly indicate its recorded Vd. Item: `N#Cc1c(-c2ccc(NS(=O)(=O)C3CC3)cc2)n(CC2CC2)c2cc(OC(F)F)ccc12`
2.2 L/kg

====

Test: Intrinsic clearance in human liver microsomes at 1 uM by LC/MS analysis
Assay type: ADME, Microsome
Settings: read-out: CLH
measured_property: CLint scaled at 1 µM

Note CLint scaled at 1 µM for the compound shown: `N#Cc1c(-c2ccc(NS(=O)(=O)C3CC3)cc2)n(CC2CC2)c2cc(OC(F)F)ccc12`
< 1 mL/min/kg

====

System: Hepatitis C virus
Assay: Antiviral activity against Hepatitis C virus genotype 1b infected in human HuH7 cells assessed as inhibition of viral replication after 2 days by luciferase reporter gene assay
Assay type: functional, organism-based, Hepacivirus hominis
Settings: Huh-7, 48 h
# strict inequality: EC50 < 1000 nM yields yes, everything else yields no

Worked cases, answers included:
INSERT INTO assay_data (molecule, label_value) VALUES
  ('CCn1c(-c2ccc(NS(=O)(=O)CC)cc2)c(C#N)c2ccc(COC)cc21', 'no'),
  ('CCCS(=O)(=O)Nc1ccc(-c2c(C#N)c3ccc(OC(F)F)cc3n2CC)cc1', 'yes'),
  ('CCn1c(-c2ccc(O)cc2)c(C#N)c2ccc(OC)cc21', 'no'),
  ('CCn1c(-c2ccc(NC(C)=O)cc2)c(C#N)c2ccc(OC)cc21', 'no');

Read the next record carefully.
Identify whether the molecule `CCn1c(-c2ccc(NS(=O)(=O)C(C)C)cc2)c(C#N)c2ccc(OC(F)F)cc21` records EC50 below 1000 nM.
yes

====

Assay: Cytotoxicity against human HuH7 cells after 2 days by MTS assay
Assay type: cell-based, Huh-7
Hi! Just check whether CC50 at 48 h is below 40 µM. Below gives Fulfilled, equal or above gives Not fulfilled.

INSERT INTO results (compound_structure, label_value) VALUES
  ('CCn1c(-c2ccc(NC(=O)c3ccccc3)cc2)c(C#N)c2ccc(OC)cc21', 'Not fulfilled'),
  ('CCn1c(-c2ccc(NS(=O)(=O)C(C)C)cc2)c(C#N)c2cc(OC)ccc21', 'Fulfilled'),
  ('CCn1c(-c2ccc(S(C)(=O)=O)cc2)c(C#N)c2ccc(OC)cc21', 'Not fulfilled'),
  ('CCn1c(-c2ccc(NS(=O)(=O)CC)cc2)c(C#N)c2ccc(OC)cc21', 'Not fulfilled'),
  ('CCn1c(-c2ccc(NS(=O)(=O)CC)cc2)c(C#N)c2ccc(C(=O)O)cc21', 'Not fulfilled'),
  ('CCn1c(-c2ccc(NS(=O)(=O)C(C)C)cc2)c(C#N)c2ccc(OC)cc21', 'Not fulfilled');

In the record for `CCn1c(-c2ccc(N)cc2)c(C#N)c2ccc(OC)cc21` , is CC50 at 48 h less than 40 µM?
Not fulfilled

Below 40 µM on CC50 at 48 h? Entry `CCn1c(-c2ccc(N3CCNS3(=O)=O)cc2)c(C#N)c2ccc(OC)cc21`
Fulfilled

# strict comparison: is reported CC50 at 48 h < 40 µM? input = `CCn1c(-c2ccc(NS(=O)(=O)C(C)C)cc2)c(C#N)c2ccc(OC(F)F)cc21`
Fulfilled

====

Assay: Cytotoxicity against human HuH7 cells after 2 days by MTS assay
Format: cell-based, Huh-7
Recorded CC50 at 48 h by entry

Example cases with answers are listed next.
INSERT INTO measurements (compound_structure, meas_value) VALUES
  ('CCOc1ccc(-c2c(C#N)c3ccc(OC)cc3n2CC)cc1', '> 100 µM'),
  ('CCOC(=O)Nc1ccc(-c2c(C#N)c3ccc(OC)cc3n2CC)cc1', '41 µM'),
  ('CCn1c(-c2ccc(N3CCCS3(=O)=O)cc2)c(C#N)c2ccc(OC)cc21', '> 50 µM'),
  ('CCn1c(-c2ccc(OC)cc2)c(C#N)c2ccc(OC)cc21', '> 100 µM');

Please find the next compound below.
# return recorded CC50 at 48 h for entry `CCCn1c(-c2ccc(NS(=O)(=O)C3CC3)cc2)c(C#N)c2ccc(OC(F)F)cc21`
> 100 µM

====

System: Hepatitis C virus
Assay: Antiviral activity against Hepatitis C virus genotype 1b infected in human HuH7 cells assessed as inhibition of viral replication after 2 days by luciferase reporter gene assay
Type: functional, organism-based, Hepacivirus hominis
Settings: Huh-7, 48 h
pEC50: −log10 of the molar value.
Classification field. Basis: pEC50. Definitions: class 1 = under 5, class 2 = from 5 up to 6, class 3 = 6 and over

INSERT INTO assay_data (compound_structure, measured_on, label_value) VALUES
  ('CCn1c(-c2ccc(OC)cc2)c(C#N)c2ccc(OC)cc21', 'Hepatitis C virus', 'class 2');

Class label required: `CCn1c(-c2ccc(NS(=O)(=O)CC)cc2)c(C#N)c2ccc(C(=O)O)cc21`
class 1

====

Experiment: Selectivity index, ratio of CC50 for human HuH7 cells to EC50 for Hepatitis C virus subtype 1b
Assay type: toxicity, cell-based, Huh-7
Settings: read-out: Ratio CC50/EC50
measured_property: selectivity ratio
Reply with just the number.

INSERT INTO results (compound_structure, meas_value) VALUES
  ('CCn1c(-c2ccc(NS(=O)(=O)CC)cc2)c(C#N)c2ccc(OCCF)cc21', 66);

Name the recorded selectivity ratio of the item `CCn1c(-c2ccc(NS(=O)(=O)CC)cc2)c(C#N)c2ccc(OC(F)F)cc21` in your answer.
69

Identify selectivity ratio associated with the compound `N#Cc1c(-c2ccc(NS(=O)(=O)C3CC3)cc2)n(CC2CC2)c2cc(OC(F)F)ccc12`
147

Return the recorded selectivity ratio value; entry: `CCn1c(-c2ccc(NS(=O)(=O)CC)cc2)c(C#N)c2ccc(OC(F)(F)F)cc21`
141

State its selectivity ratio for this compound: `CCn1c(-c2ccc(NS(=O)(=O)CC)cc2)c(C#N)c2ccc(C(F)(F)F)cc21`
50
